# method: chemical genetic growth profiling, strain panel (AID 1159580);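 further: tested at 20 µM; growth read once vehicle control cultures reached saturation at 30 °C; lower values mean less growth of the strain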
# assay context: S. cerevisiae deletion strains, growth OD, locus YMR231W, strain pep5
Out of some 5,500 compounds screened, about 2,000 (36%) were called active. Roughly 18% stayed inconclusive and do not appear here. No stated cut-off is given here; in the data, active means normalized growth mostly below about 0.91 (no sharp cut-off); inconclusive means no clear call, values can overlap the other calls; inactive means mostly above about 0.92. Some of the results follow. Where a SMILES comes first, the peptide text is derived from it. Bridges are numbered along the chain shown (N, C = ends). [ ]: non-standard residue; d: D form. The star is where a group is joined. ξ: configuration not given here. ξDab(CH2SO3H) = NC(CCNCS(=O)(=O)O)C(=O)O; Heptanoyl(6-Me) = CC(C)CCCCC(=O)*; Dab = NCC[CH](N)C(=O)O
Select the matching outcome among active, inactive

INSERT INTO assay_data (molecule, label) VALUES
  ('CCC(C)C1NC(=O)C(CCNCS(=O)(=O)O)NC(=O)C(NC(=O)C(CCNCS(=O)(=O)O)NC(=O)C(NC(=O)C(CCNCS(=O)(=O)O)NC(=O)CCCCC(C)C)C(C)O)CCNC(=O)C(C(C)O)NC(=O)C(CCNCS(=O)(=O)O)NC(=O)C(CCNCS(=O)(=O)O)NC(=O)C(C(C)CC)NC1=O (centres undefined) ({Heptanoyl(6-Me)}-[ξDab(CH2SO3H)]T[ξDab(CH2SO3H)][Dab][ξDab(CH2SO3H)]II[ξDab(CH2SO3H)][ξDab(CH2SO3H)]T; lactam 4-C; configuration not given here)', 'inactive');

Query string: Which result was noted for this molecule in the test: Nc1c2ccccc2nc2ccccc12 (tested in a mixture with another compound)
Result string: inactive

Query string: Which outcome did this test record for the molecule COc1cccc2c1C(=O)c1c(O)c3c(c(O)c1C2=O)C[C@@](O)(C(=O)CO)C[C@@H]3O[C@H]1C[C@H](N)[C@@H](O)[C@H](C)O1 ?
Result string: inactive

Query string: Query: recorded result category for COc1ccc2c3c([nH]c2c1)C(C)=NCC3 in this test
Result string: inactive

Query string: Please let me know the test result on file for Nc1c2c(nc3ccccc13)CCCC2O (centres undefined) .
Result string: inactive

Query string: Entry O=C1C(O)=C(O)C(=O)C(O)=C1O : call = ?
Result string: inactive

Query string: Answer briefly: the call reported for Nc1c2c(nc3ccccc13)CCCC2 in this assay.
Result string: inactive

Query string: GET /call?item= COc1cccc2c1C(=O)c1c(O)c3c(c(O)c1C2=O)C[C@@](O)(C(C)=O)C[C@@H]3O[C@H]1C[C@H](N)[C@H](O)[C@H](C)O1 returns the recorded outcome of this test.
Result string: inactive

Query string: Lab log entry: CC(=O)NC(C(=O)O)C(C)(C)SN=O (centres undefined) — outcome as called in the assay?
Result string: inactive

Query string: Returns: the outcome recorded for COc1cccc2c1C(=O)c1c(O)c3c(c(O)c1C2=O)C[C@@](O)(C(=O)CO)C[C@@H]3OC1C[C@H](N)[C@H](O)[C@H](C)O1 (some centres undefined) in this assay.
Result string: active

Query string: Name the outcome recorded for CC(CC(=O)C1OC1(C)C)C1C(=O)CC2(C)C3=CCC4C(C)(C)C(OC5OCC(O)C(O)C5O)CCC45CC35C(O)CC12C (centres undefined) in the assay.
Result string: inactive

Query string: Recorded test call requested for C/C=C(/C)C(=O)O[C@@H]1[C@H](OC(C)=O)[C@@]2(CO)C(CC1(C)C)C1=CCC3[C@@]4(C)CC[C@H](O[C@@H]5O[C@H](C(=O)O)[C@@H](O[C@@H]6O[C@H](CO)[C@@H](O)[C@H](O)[C@H]6O)[C@H](O)[C@H]5O[C@@H]5O[C@H](CO)[C@@H](O)[C@H](O)[C@H]5O)[C@](C)(CO)C4CC[C@@]3(C)[C@]1(C)C[C@H]2O (some centres undefined)
Result string: inactive

Query string: Test call for this molecule, please: CCOc1ccc2nc3cc(N)ccc3c(N)c2c1
Result string: active

Query string: Tell me the assay call for N=C(N)SCCN please.
Result string: inactive
